tested on: HepG2; assay: Antiproliferative activity against human HepG2 cells assessed as reduction in cell viability measured for 24 hrs by MTT assay; format: functional, cell-based; details: HepG2, 24 h
// reported pIC50 for each item listed
// returns pIC50 (minus log10 of molar concentration), number only

Use the examples below as a reference point.
C[C@H](CC[C@H]1O[C@H]2C[C@H]3[C@@H]4CC=C5C[C@@H](OC6=C(Cl)C(=O)c7ccccc7C6=O)CC[C@]5(C)[C@H]4CC[C@]3(C)[C@H]2[C@@H]1C)CO[Si](C)(C)C(C)(C)C    5.45
Cc1ccc2c(n1)C(=O)C(Cl)=C(O[C@H]1CC[C@@]3(C)C(=CC[C@H]4[C@@H]5C[C@@H]6O[C@H](CC[C@@H](C)CO[Si](C)(C)C(C)(C)C)[C@@H](C)[C@@H]6[C@@]5(C)CC[C@@H]43)C1)C2=O    5.45
Cc1ccc2c(c1)C(=O)C(Cl)=C(OC[C@H](C)CC[C@H]1O[C@H]3C[C@H]4[C@@H]5CC=C6C[C@@H](OC7=C(Cl)C(=O)c8cc(C)ccc8C7=O)CC[C@]6(C)[C@H]5CC[C@]4(C)[C@H]3[C@@H]1C)C2=O    5.04

Then there is this molecule:
[in] API: value(readout= pIC50, system= HepG2, query= `C[C@H](CC[C@H]1O[C@H]2C[C@H]3[C@@H]4CC=C5C[C@@H](OC6=C(Cl)C(=O)c7ccccc7C6=O)CC[C@]5(C)[C@H]4CC[C@]3(C)[C@H]2[C@@H]1C)COC1=C(Cl)C(=O)c2ccccc2C1=O` )
[out] 5.75

Recorded values, source ChEMBL document CHEMBL6127100.
